System: OVCAR-3 ovarian
measurement-description: NCI-60 one-dose screen, 48 h
stated-conditions: 10 µM unless noted
The panel holds about 83,000 compounds, 20% with a hit somewhere; the sample as a whole holds those more often. The source made the active and inactive calls. Rule for the calls: active = growth percent below 10; inactive = the rest.
Field 'call' accepts active, inactive

Worked set:
[
  {
    "molecule": "C=C1c2c(Cl)ccc(O)c2C(O)=C2C(=O)[C@]3(O)C(O)=C(C(N)=O)C(=O)[C@@H](N(C)C)[C@@H]3[C@@H](O)[C@H]12",
    "assayed-target": "OVCAR-3 ovarian",
    "label-class": "active"
  },
  {
    "molecule": "Cc1[nH]c2ccc(F)cc2c1CCNC(=O)C1CCN(C(=O)c2ccc(-c3ccccc3)cc2)CC1",
    "assayed-target": "OVCAR-3 ovarian",
    "label-class": "inactive"
  },
  {
    "molecule": "Nn1c(CN2CCN(c3cc4c(cc3F)c(=O)c(C(=O)O)cn4C3CC3)CC2)n[nH]c1=S",
    "assayed-target": "OVCAR-3 ovarian",
    "label-class": "inactive"
  }
]

Then this molecule:
Task: Just curious, what result did C#C[C@H](O)/C=C/CCCCCCC#C[C@H](O)CC[C@@H](O)C#CCCCCCC/C=C/[C@@H](O)C#C get here?
Output: inactive

====

Tested on: CCRF-CEM leukemia
measurement-description: NCI-60 one-dose screen, 48 h (100 = growth as untreated, 0 = no growth, -100 = all killed)
stated-conditions: 10 µM unless noted
About 83,000 compounds went through this panel and 20% of them were active in at least one assay; those are over-represented in the sample as a whole.
Consider the following compounds and their measured growth readings.
Your answer should be a plain number; it is taken to be in %.

See these solved cases before continuing.
[
  {
    "compound": "O=S(=O)(Nc1cccc2cc(OS(=O)(=O)c3ccccc3)ccc12)c1ccccc1",
    "assayed-target": "CCRF-CEM leukemia",
    "growth / %": 61.9
  },
  {
    "compound": "CC(C)(C)NCC(O)COc1c(Br)c(Br)c(Br)c2c1OC(C)(C)C2 (stereo not given)",
    "assayed-target": "CCRF-CEM leukemia",
    "growth / %": -62.5
  },
  {
    "compound": "CCCCN(CCCC)c1ccc(C(=N)c2ccc(N(C)C)cc2)cc1",
    "assayed-target": "CCRF-CEM leukemia",
    "growth / %": 1.04
  }
]

For reference, reported growth for Fc1cccc(F)c1C#Cc1ccc2cccnc2c1 stands at 83.7

For reference, reported growth for CN1CCN(Cn2nc(-c3cc(F)c(Cl)cc3Cl)n(/N=C/c3ccc(N(C)C)cc3)c2=S)CC1 stands at 83.5

====

Test system: PC-3 prostate
measurement-description: NCI-60 one-dose screen, 48 h (100 = growth as untreated, 0 = no growth, -100 = all killed)
stated-conditions: 10 µM unless noted
Method: Growth inhibition of the PC-3 human tumor cell line is measured as a screen for anti-cancer activity. Cells are grown in 96 well plates and exposed to the test compound for 48 hours. Compounds are tested at a single concentration, which is 10^-5 M for most compounds. The reported endpoint is percent growth (GI% or GIPRCNT), where numbers from 0 - 100% represent growth inhibition, and numbers from -100% - 0 represent cell death. For example, a value of 40 represents 60% growth inhibition. […]
About 83,000 compounds went through this panel and 20% of them were active in at least one assay; those are over-represented in the sample as a whole.
measured-attribute: growth (%)
Your answer should be a plain number; it is taken to be in %.

See these solved cases before continuing.
[
  {
    "compound": "C=CCn1c(SCC(=O)Nc2ccc(C(=O)/C=C/c3cc(OC)c(OC)c(OC)c3)cc2)nnc1-c1ccc(OC)cc1",
    "growth / %": 25.1
  },
  {
    "compound": "Cc1ccccc1C[P+](c1ccccc1)(c1ccccc1)c1ccccc1",
    "growth / %": 14.5
  },
  {
    "compound": "Nc1nc(-c2cc3c(cc2Cl)NC(=O)/C3=C/c2ccc(Cl)cc2)cs1",
    "growth / %": 32.6
  },
  {
    "compound": "c1ccc2c(c1)Oc1cccnc1-n1nccc1-2",
    "growth / %": 89.7
  },
  {
    "compound": "c1nc(SC2=NCCN2)c2[nH]cnc2n1",
    "growth / %": 57.5
  },
  {
    "compound": "CCc1c(C)c2cc(-n3c(-c4ccc(OC)cc4)csc3=N)c(O)c(C)c2oc1=O",
    "growth / %": 12.9
  },
  {
    "compound": "COc1ccc(-c2nnc(SCC(=O)Nc3ccc(C(=O)/C=C/c4ccc(Cl)cc4)cc3)o2)cc1OC",
    "growth / %": 84.6
  },
  {
    "compound": "CN1C(=O)C2(SCC(C(=O)NCC(=O)OC(C)(C)C)N2C(=O)C2CCCCC2)c2ccccc21 (stereo not given)",
    "growth / %": 94.6
  }
]

For reference, reported growth for Cc1ccc(-c2nc3c(N=Nc4ccc(S(N)(=O)=O)cc4)c(N)nn3c(N)c2C#N)cc1 stands at 32.4

For reference, reported growth for Cc1nc(-c2ccc(Cl)cc2)ccc1NC(=O)Nc1cccc(C(F)(F)F)c1 stands at 80.5
